FYI, the data here is from patent US20190033318A1.

# TARGET SYSTEM: T1, 2α PASB (HIF-2α PASB domain, 240-350) (UniProt Q99814 240-350, labelled with NT-647-NHS dye in MST; 15N (and 13C 15N) labelled in NMR)
# T1 construct: range 240-350; also called PAS B domain of HIF-2α; not shown: His6 tag of vector pET28, then Met
# T1 sequence (Q99814 240-350): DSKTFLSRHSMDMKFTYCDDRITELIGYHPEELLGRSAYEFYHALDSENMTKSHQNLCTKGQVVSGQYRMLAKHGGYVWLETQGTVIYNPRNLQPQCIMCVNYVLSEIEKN
# ASSAY NAME: ELISA, 2α PASB on Ni plate, inhibition of GST-1β binding
RECORDED ENDPOINT: IC50 (µM)
Respond numerically; units are µM and should not be typed.

IC50 for CRVIIF (cyclic peptide (cyclo-, first amino acid joined to the last), also called Compound C) [cyclo-CRVIIF (SEQ ID NO 4)] ?
15.2
